test: Peptoid quantity remaining in liver by HPLC-TOF mass spectrometry; assay type: in vivo; conditions: liver homogenate; also: time not given here
Non-standard residues stand in square brackets, D forms with d. Residues, ends and D or L forms follow the SMILES beside them. *: point of attachment. N(3-lauroyloxypropyl)Gly = CCCCCCCCCCCC(=O)OCCCNCC(=O)O; N(2-decanoyloxyethyl)Gly = CCCCCCCCCC(=O)OCCNCC(=O)O; Gly(N-3-morpholinopropyl) = O=C(O)CNCCCN1CCOCC1; N(2-ethylhexyl)Gly = CCCCC(CC)CNCC(=O)O; NHexGly = CCCCCCNCC(=O)O; For = O=C*
% of injected dose remaining in liver values for the compounds below.
Metric name: % of injected dose remaining in liver (%)

Compound: CCCCCCCCCCCC(=O)OCCCN(CC(=O)N(CC(=O)N(CCCCCC)CC(=O)N(CCCOC(=O)CCCCCCCCCCC)CC(=O)N(CC(=O)N(CCCCCC)CC(N)=O)CC(CC)CCCC)CC(CC)CCCC)C(=O)CN(C=O)CCCN1CCOCC1 (centres unmarked) [Compound 70] (For-[Gly(N-3-morpholinopropyl)][N(3-lauroyloxypropyl)Gly][N(2-ethylhexyl)Gly][NHexGly][N(3-lauroyloxypropyl)Gly][N(2-ethylhexyl)Gly][NHexGly]-NH2)
Test result: 8.06
//
Compound: CCCCCCCCCC(=O)OCCN(CC(=O)N(CCOC(=O)CCCCCCCCC)CC(=O)N(CC(=O)N(CCOC(=O)CCCCCCCCC)CC(=O)N(CCOC(=O)CCCCCCCCC)CC(=O)N(CC(N)=O)CC(CC)CCCC)CC(CC)CCCC)C(=O)CN(C=O)CCCN1CCOCC1 (centres unmarked) [Compound 76] (For-[Gly(N-3-morpholinopropyl)][N(2-decanoyloxyethyl)Gly][N(2-decanoyloxyethyl)Gly][N(2-ethylhexyl)Gly][N(2-decanoyloxyethyl)Gly][N(2-decanoyloxyethyl)Gly][N(2-ethylhexyl)Gly]-NH2)
Test result: 7.34
